Quick reference for IC50 among some molecules
- test details: Cytotoxicity against BRCA2 deficient Chinese hamster VC8 cells after 3 days by CCK8 or SRB assay
- Type: functional, cell-based
- condition label: Cricetulus griseus, V-C8, 72 h
measured property: IC50 (nM)

* O=C(c1cc(Cc2n[nH]c(=O)c3ccccc23)cc(F)c1F)N1CCN(c2ccc(F)cc2)CC1 | 90.1
* O=C(c1cc(Cc2n[nH]c(=O)c3ccccc23)cc(F)c1F)N1CCN(C(=O)C2CCCO2)CC1 (stereo not drawn) | 68.1
* CCCCN1CCN(C(=O)c2cc(Cc3n[nH]c(=O)c4ccccc34)cc(F)c2F)CC1 | 149
* CCN1CCN(C(=O)c2cc(Cc3n[nH]c(=O)c4ccccc34)cc(F)c2F)CC1 | 987
* O=C(c1cc(Cc2n[nH]c(=O)c3ccccc23)cc(F)c1F)N1CCN(C(=O)N2CCOCC2)CC1 | 938
* O=C(c1cc(Cc2n[nH]c(=O)c3ccccc23)cc(F)c1F)N1CCN(c2nccs2)CC1 | 137
* O=C(c1cc(Cc2n[nH]c(=O)c3ccccc23)cc(F)c1F)N1CCN(C2CCCCCC2)CC1 | 42.6
* O=C(c1cc(Cc2n[nH]c(=O)c3ccccc23)cc(F)c1F)N1CCN(c2cccc(C(F)(F)F)c2)CC1 | 624
* O=C(c1cc(Cc2n[nH]c(=O)c3ccccc23)cc(F)c1F)N1CCN(c2ccc(O)cc2)CC1 | 3970
* N#Cc1cccnc1N1CCN(C(=O)c2cc(Cc3n[nH]c(=O)c4ccccc34)cc(F)c2F)CC1 | 0.003
* Cc1ccc(N2CCN(C(=O)c3cc(Cc4n[nH]c(=O)c5ccccc45)cc(F)c3F)CC2)cc1 | 2080
* O=C(c1cc(Cc2n[nH]c(=O)c3ccccc23)cc(F)c1F)N1CCN(c2ccccc2)CC1 | 1940
* O=C(c1cc(Cc2n[nH]c(=O)c3ccccc23)cc(F)c1F)N1CCN(c2ccc([N+](=O)[O-])cc2)CC1 | 206
* O=C(c1cc(Cc2n[nH]c(=O)c3ccccc23)cc(F)c1F)N1CCN(c2ccncc2)CC1 | 3290
* N#Cc1ccccc1N1CCN(C(=O)c2cc(Cc3n[nH]c(=O)c4ccccc34)cc(F)c2F)CC1 | 8.8
* O=C(c1cc(Cc2n[nH]c(=O)c3ccccc23)cc(F)c1F)N1CCN(C2CCCC2)CC1 | 284
* O=C(c1cc(Cc2n[nH]c(=O)c3ccccc23)ccc1F)N1CCN(C(=O)C2CC2)CC1 [OLAPARIB] | 566

----------
- test details: Apparent permeability across apical to basolateral side in human Caco2 cells assessed as drug recovery at 4701.8 pmol after 2 hrs by LC-MS/MS analysis
- Format: ADME, cell-based
- condition label: Caco-2, read-out: Drug recovery
measured property: recovery at 2 h (%)

* N#Cc1cccnc1N1CCN(C(=O)c2cc(Cc3n[nH]c(=O)c4ccccc34)cc(F)c2F)CC1 | 91.5

----------
- test details: AUC in Sprague-Dawley rat at 20 mg/kg, po by LC-MS/MS analysis
- Type: ADME, organism-based
- condition label: in vivo
measured property: AUC (ng·h/mL)

- O=C(c1cc(Cc2n[nH]c(=O)c3ccccc23)ccc1F)N1CCN(C(=O)C2CC2)CC1 [OLAPARIB]: 4990
